# testTarget: Human PCSK9 (Genbank EF692496) containing a histidine (His)8 C-terminal tag (UniProt Q8NBP7 31-692)
# assayName: BIAcore SPR
measuredQuantity: Kd (nM)
Respond with the bare value in nM.

Using the record for anti-PCSK9 antibody 508.20.84 (antibody, V domains shown) VH: EVQLVESGGGLVQPGGSLRLSCAASGFTFTGYAIHWVRQAPGKGLEWVARISPANGNTNYADSVKGRFTISADTSKNTAYLQMNSLRAEDTAVYYCARWIGSRELYIMDYWGQGTLVTVSS VL: DIQMTQSPSSLSASVGDRVTITCRASQDVSTAVAWYQQKPGKAPKLLIYSASFLYSGVPSRFSGSGSGTDFTLTISSLQPEDFATYYCQQSYPAPSTFGQGTKVEIK , report its Kd.
0.481

Using the record for anti-PCSK9 antibody 508.20.06 (antibody, V domains shown) VH: EVQLVESGGGLVQPGGSLRLSCAASGFTFTGYAIHWVRQAPGKGLEWVARISPANGNTNYADSVKGRFTISADTSKNTAYLQMNSLRAEDTAVYYCARWIGSRELYIMDYWGQGTLVTVSS VL: DIQMTQSPSSLSASVGDRVTITCRASQDVSTAVAWYQQKPGKAPKLLIYSASFLYSGVPSRFSGSGSGTDFTLTISSLQPEDFATYYCQQSYPSPATFGQGTKVEIK , report its Kd.
0.628

Using the record for anti-PCSK9 antibody 508.20.04b (antibody, V domains shown) VH: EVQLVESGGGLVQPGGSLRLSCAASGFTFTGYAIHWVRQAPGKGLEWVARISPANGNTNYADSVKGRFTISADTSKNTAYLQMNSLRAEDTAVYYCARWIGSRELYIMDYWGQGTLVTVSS VL: DIQMTQSPSSLSASVGDRVTITCRASQDVSTAVAWYQQKPGKAPKLLIYSASFLYSGVPSRFSGSGSGTDFTLTISSLQPEDFATYYCQQSYPAPATFGQGTKVEIK , report its Kd.
0.757

Using the record for YW508.20.33b reformatted into human IgG1 having a heavy chain with SEQ ID NO: 35 and a light chain with SEQ ID NO: 36 (antibody, V domains shown) VH: EVQLVESGGGLVQPGGSLRLSCAASGFTFSSTAIHWVRQAPGKGLEWVARISPANGNTNYADSVKGRFTISADTSKNTAYLQMNSLRAEDTAVYYCARWIGSRELYIMDYWGQGTLVTVSS VL: DIQMTQSPSSLSASVGDRVTITCRASQDVSTAVAWYQQKPGKAPKLLIYSASFLYSGVPSRFSGSGSGTDFTLTISSLQPEDFATYYCQQAYPALHTFGQGTKVEIKR , report its Kd.
0.408
